Ref: PubChem BioAssay

Assay Comment: S6 kinase pathway phospho-S6 level changes – cell-based, A549, cytoblot, luminescence, serum-stimulated, primary screen (AID 1158);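 note: serum-stimulated A549 lung adenocarcinoma cells; signal is phosphorylated S6 detected by cytoblot immunostaining with HRP secondary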
Conditions Used: 5 h, higher = more signal
Binary classification by z-score, with -0.2 as an inclusive lower bound for satisfied; all other cases are not satisfied.

[N-]=[N+]=Nc1ccccc1[C@H]1OC(c2ccc(OCCCO)cc2)=N[C@@]1(CCS(=O)(=O)c1ccccc1)C(=O)N1CCOCC1    satisfied
O=C1c2ccccc2[C@](Cc2ccccc2I)(C(=O)O)[C@H](c2ccc(CO)cc2)N1Cc1ccccc1C(F)(F)F    not satisfied
COc1cc(CO)cc(I)c1O[C@H]1C=C(C(=O)NCCO)C[C@@H](N(CCc2cccc(F)c2)C(=O)CCC2CCCC2)[C@@H]1O    satisfied
C=C(C(=O)CC[C@@H](OC(C)=O)c1ccc(OCCO)cc1)C(C)C    not satisfied
CCCC[C@@H]1C[C@H]1[C@@H](NC(=O)c1ccccc1)c1ccccc1    not satisfied
COCCOC(=O)N1C(=O)[C@@]2(c3cc(C#CC4=CCCCC4)ccc31)[C@H](C(=O)N1CCN(c3ncccn3)CC1)[C@H]1C(=O)O[C@H](c3ccccc3)[C@H](c3ccccc3)N1[C@@H]2c1ccc(OCCO)cc1    satisfied
O=C(CS)NCCCCCNC(=O)[C@H]1C[C@H]2C(=O)N[C@@H](Cc3ccccc3)C(=O)N2[C@H]1c1cccc(OCCO)c1    satisfied
CC(C)CNC(=O)[C@@]1(C)c2ccccc2C(=O)N(C(C)C)[C@H]1c1ccc(CO)cc1    not satisfied
CC(C)(C)OC(=O)CC[C@@]1(C(=O)N2CCOCC2)N=C(c2ccc(OCCCO)cc2)O[C@@H]1c1ccccc1N=[N+]=[N-]    not satisfied
Cc1c(NC(=O)/C(C#N)=C/C=C/c2ccccc2)c(=O)n(-c2ccccc2)n1C    not satisfied
COc1ccc(C(=O)Nc2cccc(CN3C(=O)[C@@]4(O[C@@H](CCn5cc([C@H](O)c6ccccc6)nn5)[C@H]([Si](C)(C)c5ccc(OC)cc5)[C@H]4C)c4ccccc43)c2)cc1    satisfied
C=C(/C(=C/C[C@@H](OC(=O)c1ccncc1)c1ccc(CO)o1)c1cc(C(=O)OC)ccc1OC)C(C)C    satisfied
C=CCNC(=O)[C@@H]1[C@H]2C(=O)O[C@H](c3ccccc3)[C@H](c3ccccc3)N2[C@H](c2ccccc2OCCO)[C@@]12C(=O)N(C(=O)OCCOC)c1ccc(C#CCC(C(=O)OC)C(=O)OC)cc12    satisfied
COC(=O)[C@@]1(Cc2ccc(F)cc2)[C@H]2c3cc(C(=O)N4CCCC4)n(Cc4ccc(Cl)c(C(F)(F)F)c4)c3C[C@H]2CN1C(=O)c1ccccc1    not satisfied
